# TEST SYSTEM: E. coli dihydrofolate reductase (ecDHFR) (Escherichia coli)
# COND: NMR; Ile61 resonance; no other ligand; pH 7.2 in D2O
ENDPOINT LABEL: pKd
Field pKd (float): negative decimal logarithm of the concentration in molar.

Need pKd, item Nc1ccc(C(=O)N[C@@H](CCC(=O)O)C(=O)O)cc1 [pABG, p-aminobenzoyl-L-glutamate]
2.09

###

# TEST SYSTEM: E. coli dihydrofolate reductase (ecDHFR) (Escherichia coli, UniProt P0ABQ4)
# Sequence (P0ABQ4 whole entry): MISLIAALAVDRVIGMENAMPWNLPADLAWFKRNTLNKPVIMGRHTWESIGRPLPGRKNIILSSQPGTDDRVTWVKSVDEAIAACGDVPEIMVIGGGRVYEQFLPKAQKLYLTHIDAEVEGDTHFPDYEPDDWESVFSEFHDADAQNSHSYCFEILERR
# COND: NMR; Ile50 resonance; no other ligand; pH 7.2 in D2O
ENDPOINT LABEL: Kd (mM)
Kindly answer with a numeric value in mM, unit omitted.

Need Kd, item Nc1ccc(C(=O)N[C@@H](CCC(=O)O)C(=O)O)cc1 [pABG, p-aminobenzoyl-L-glutamate]
7.64
